Data credit: paper PMC9551036

I'd be grateful if you could share measured Mic. Stab. Human QH for these entries.
Assay: Microsomal stability
Type: in vitro ADME
Settings: human liver microsomes
Express your answer in %, writing the number without its unit.

Entry `Cc1ncsc1-c1ccc(CNC(=O)[C@@H]2C[C@@H](O)CN2C(=O)[C@@H](NC(=O)C2(F)CC2)C(C)(C)C)c(OCCCCN2CCC(c3ccc4c(c3)n(C3CCCC3)c3nc(=O)c5c(Br)cccc5n43)CC2)c1` — recorded Mic. Stab. Human QH = 78.440

Given item Cc1ncsc1-c1ccc([C@H](COC(C)CN2CCC(c3ccc4c(c3)n(C3CCCC3)c3nc(=O)c5c(Br)cccc5n43)CC2)NC(=O)[C@@H]2C[C@@H](O)CN2C(=O)[C@@H](NC(=O)C2(N(C)C)CC2)C(C)(C)C)cc1 (some centres unmarked) , the value recorded as its Mic. Stab. Human QH is 85.500

###

Molecular target: SMARCA4 (Homo sapiens)
Sequence (P51532 whole entry): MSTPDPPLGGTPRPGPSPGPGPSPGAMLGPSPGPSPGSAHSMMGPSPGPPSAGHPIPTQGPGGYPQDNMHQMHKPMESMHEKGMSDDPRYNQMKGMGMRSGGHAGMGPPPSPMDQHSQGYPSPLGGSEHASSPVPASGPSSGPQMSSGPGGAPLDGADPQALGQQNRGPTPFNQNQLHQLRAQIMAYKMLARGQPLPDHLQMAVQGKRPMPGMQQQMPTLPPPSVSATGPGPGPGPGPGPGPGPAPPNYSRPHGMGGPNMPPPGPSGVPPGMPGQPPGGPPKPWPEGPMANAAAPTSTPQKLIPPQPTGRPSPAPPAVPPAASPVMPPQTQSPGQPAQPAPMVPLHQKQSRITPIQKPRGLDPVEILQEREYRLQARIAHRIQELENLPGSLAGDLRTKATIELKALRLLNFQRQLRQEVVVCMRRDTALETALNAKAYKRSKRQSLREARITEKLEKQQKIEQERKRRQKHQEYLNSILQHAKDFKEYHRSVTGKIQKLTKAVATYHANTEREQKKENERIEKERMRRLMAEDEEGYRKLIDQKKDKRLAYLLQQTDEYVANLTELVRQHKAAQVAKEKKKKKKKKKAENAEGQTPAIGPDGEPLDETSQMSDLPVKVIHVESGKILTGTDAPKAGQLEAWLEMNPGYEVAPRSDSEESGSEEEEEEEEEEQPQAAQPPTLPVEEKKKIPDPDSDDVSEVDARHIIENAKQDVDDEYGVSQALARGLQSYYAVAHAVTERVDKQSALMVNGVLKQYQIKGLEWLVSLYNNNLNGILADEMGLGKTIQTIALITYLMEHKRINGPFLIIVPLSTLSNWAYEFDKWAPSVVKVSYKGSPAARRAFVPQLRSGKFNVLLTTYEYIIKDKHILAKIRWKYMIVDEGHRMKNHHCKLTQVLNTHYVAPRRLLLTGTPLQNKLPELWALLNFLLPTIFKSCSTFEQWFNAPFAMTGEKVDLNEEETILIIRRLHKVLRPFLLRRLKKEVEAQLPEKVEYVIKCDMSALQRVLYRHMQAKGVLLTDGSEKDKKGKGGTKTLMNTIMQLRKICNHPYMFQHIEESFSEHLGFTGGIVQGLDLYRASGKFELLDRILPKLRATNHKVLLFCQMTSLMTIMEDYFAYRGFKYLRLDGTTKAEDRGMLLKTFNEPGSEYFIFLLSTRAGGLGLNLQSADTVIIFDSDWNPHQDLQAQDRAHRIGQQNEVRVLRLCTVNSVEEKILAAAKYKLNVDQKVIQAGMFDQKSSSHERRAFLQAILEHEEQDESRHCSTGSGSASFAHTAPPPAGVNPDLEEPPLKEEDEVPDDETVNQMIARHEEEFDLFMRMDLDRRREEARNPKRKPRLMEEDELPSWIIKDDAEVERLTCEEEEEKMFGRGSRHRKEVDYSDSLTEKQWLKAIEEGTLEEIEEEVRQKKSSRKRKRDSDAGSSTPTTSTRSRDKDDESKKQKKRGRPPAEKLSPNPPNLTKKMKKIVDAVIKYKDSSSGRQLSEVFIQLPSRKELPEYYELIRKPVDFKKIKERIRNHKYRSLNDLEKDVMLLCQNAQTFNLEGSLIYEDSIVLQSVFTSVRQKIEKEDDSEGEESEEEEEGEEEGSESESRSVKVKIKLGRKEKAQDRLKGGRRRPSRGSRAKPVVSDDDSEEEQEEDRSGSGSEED
Assay: SMARCA4 capillary electrophoresis protein assay in RKO cells
Assay type: cell-based
Set-up: endogenous in cells; host or cells: RKO, HCT116, LU99, HCC-364, HCT-15, HCC4006, SK-N-AS
Conditions: RKO (18 h); mean ± SD
Quantity Name: DC50 (nM)
Output spec: scalar in nM, unitless text.

// Cc1ncsc1-c1ccc([C@H](COC(C)CN2CCC(c3ccc4c(c3)n(C3CCCC3)c3nc(=O)c5c(Br)cccc5n43)CC2)NC(=O)[C@@H]2C[C@@H](O)CN2C(=O)[C@@H](NC(=O)C2(N(C)C)CC2)C(C)(C)C)cc1 (some centres unmarked) : DC50 value = 174

The compound `Cc1ncsc1-c1ccc([C@H](COC(C)(C)CN2CCC(c3ccc4c(c3)n(C3CCCC3)c3nc(=O)c5c(Br)cccc5n43)CC2)NC(=O)[C@@H]2C[C@@H](O)CN2C(=O)[C@@H](NC(=O)C2(F)CC2)C(C)(C)C)cc1` showed DC50 equal to 159

###

Target: SMARCA4^BD (Homo sapiens)
Construct: P51532, residues 1448–1569 with additional N-terminal SM residues; GST (TEV site) (N, cleaved yes); made in house; host or cells: Escherichia coli BL21(DE3); construct from SGC Toronto
Assay: SPR binding to immobilised SMARCA4 bromodomain
Conditions: SMARCA4BD, mean ± SD
Response field label takes true when Kd is strictly below 0.4 µM and false in all other cases.

Query string: Check if Kd falls below 0.4 µM for `O=c1nc2n(C3CCCC3)c3ccccc3n2c2cccc(Br)c12` .
Result string: false

Query string: Lab log: compare recorded Kd with 0.4 µM; is it strictly lower for `Cc1ncsc1-c1ccc(CNC(=O)[C@@H]2C[C@@H](O)CN2C(=O)[C@@H](NC(=O)C2(F)CC2)C(C)(C)C)c(OCCCCN2CCC(c3ccc4c(c3)n(C3CCCC3)c3nc(=O)c5c(Br)cccc5n43)CC2)c1` ?
Result string: true

Query string: Could you please tell me whether Kd recorded for Cc1ncsc1-c1ccc([C@H](COC(C)CN2CCC(c3ccc4c(c3)n(C3CCCC3)c3nc(=O)c5c(Br)cccc5n43)CC2)NC(=O)[C@@H]2C[C@@H](O)CN2C(=O)[C@@H](NC(=O)C2(N(C)C)CC2)C(C)(C)C)cc1 (some centres unmarked) is less than 0.4 µM?
Result string: true

Query string: Is it true that Kd reported for `Cc1ncsc1-c1ccc(CNC(=O)[C@@H]2C[C@H](O)CN2C(=O)[C@@H](NC(=O)C2(F)CC2)C(C)(C)C)c(OCCN2CCC(c3ccc4c(c3)n(C3CCCC3)c3nc(=O)c5c(Br)cccc5n43)CC2)c1` is less than 0.4 µM?
Result string: true

###

Experiment: Cell viability assay (CellTiter Glo) in a panel of cell lines;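 also: percent of DMSO-treated control cells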
Assay type: cell-based, human
Details: human, LXFA 629L cells, LXFA_629L; log10 conc -6.50031 mol/l
Quantity Name: viability at 0.316 µM

Consider Cc1ncsc1-c1ccc(C(CCC(C)CCN2CCC(c3ccc4c(c3)n(C3CCCC3)c3nc(=O)c5c(Br)cccc5n43)CC2)NC(=O)C2CC(O)CN2C(=O)C(NC(=O)C2(F)CC2)C(C)(C)C)cc1 (stereo not shown) [ACBI2] . Its measured viability at 0.316 µM is 24.7%

###

Assay: Cell viability assay (CellTiter Glo) in a panel of cell lines;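 also: percent of DMSO-treated control cells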
Format: cell-based, human
Conditions: human, MP38 cells, MP38; log10 conc -7 mol/l
Quantity Name: viability at 0.1 µM
Value and unit, in that order.

viability at 0.1 µM recorded for this compound, Cc1ncsc1-c1ccc(C(CCC(C)CCN2CCC(c3ccc4c(c3)n(C3CCCC3)c3nc(=O)c5c(Br)cccc5n43)CC2)NC(=O)C2CC(O)CN2C(=O)C(NC(=O)C2(F)CC2)C(C)(C)C)cc1 (stereo not shown) [ACBI2] , is 1.6%

###

Assay: Microsomal stability
Type: in vitro ADME
Conditions: human liver microsomes
Quantity Name: Mic. Stab. Human (% QH)
Hi! Could you send only the number? It should be in % QH, unit omitted.

For `Cc1ncsc1-c1ccc(CNC(=O)[C@@H]2C[C@@H](O)CN2C(=O)[C@@H](NC(=O)C2(F)CC2)C(C)(C)C)c(OCCCCN2CCC(c3ccc4c(c3)n(C3CCCC3)c3nc(=O)c5c(Br)cccc5n43)CC2)c1` the compound record lists Mic. Stab. Human as 78

Measured Mic. Stab. Human of `Cc1ncsc1-c1ccc(CNC(=O)[C@@H]2C[C@H](O)CN2C(=O)[C@@H](NC(=O)C2(F)CC2)C(C)(C)C)c(OCCN2CCC(c3ccc4c(c3)n(C3CCCC3)c3nc(=O)c5c(Br)cccc5n43)CC2)c1` : 82

Mic. Stab. Human recorded for this compound, Cc1ncsc1-c1ccc([C@H](COC(C)CN2CCC(c3ccc4c(c3)n(C3CCCC3)c3nc(=O)c5c(Br)cccc5n43)CC2)NC(=O)[C@@H]2C[C@@H](O)CN2C(=O)[C@@H](NC(=O)C2(N(C)C)CC2)C(C)(C)C)cc1 (stereo partly shown) , is 86

###

Molecular target: SMARCA4^BD (Homo sapiens, UniProt P51532)
Construct: P51532, residues 1448–1569 with additional N-terminal SM residues; GST (TEV site) (N, cleaved yes); made in house; host or cells: Escherichia coli BL21(DE3); construct from SGC Toronto
Sequence (P51532 1448-1569): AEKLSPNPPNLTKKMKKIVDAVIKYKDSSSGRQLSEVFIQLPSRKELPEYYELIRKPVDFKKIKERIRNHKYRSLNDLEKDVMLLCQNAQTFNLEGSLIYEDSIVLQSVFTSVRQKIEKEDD
Experiment: SPR binding to immobilised SMARCA4 bromodomain
Details: SMARCA4BD, mean ± SD
Experimental: SMARCA4^BD was provided by the Structural Genomics Consortium (SGC), Toronto[32] and SMARCA2^BD and PRM1^BD5 were synthesised by GeneArt then subcloned into pDEST15 vectors (Invitrogen). The VCB complex was expressed and purified as described previously, with the modification that 0.3 mM IPTG was used for induction of expression. […] Both were stored in 20 mM 4-(2-hydroxyethyl)−1-piperazineethanesulfonic acid (HEPES), 150 mM sodium chloride and 1 mM tris(2-carboxyethyl)phosphine (TCEP) pH 7.5. […]
Can you tell me pKd for the items I'm about to list?
In textbook form, pKd equals minus log to base ten of the concentration in mol/L.

Documented pKd of `Cc1ncsc1-c1ccc([C@H](COC(C)(C)CN2CCC(c3ccc4c(c3)n(C3CCCC3)c3nc(=O)c5c(Br)cccc5n43)CC2)NC(=O)[C@@H]2C[C@@H](O)CN2C(=O)[C@@H](NC(=O)C2(F)CC2)C(C)(C)C)cc1` : 6.56

In plain terms, `CN1CCN(c2nc(=O)c3c(I)cccc3o2)CC1` has a documented pKd of 4.66

Form field pKd, entry `Cc1ncsc1-c1ccc([C@H](COCCN2CCC(c3ccc4c(c3)n(C3CCCC3)c3nc(=O)c5c(Br)cccc5n43)CC2)NC(=O)[C@@H]2C[C@@H](O)CN2C(=O)[C@@H](NC(=O)C2(N(C)C)CC2)C(C)(C)C)cc1` : 6.68

Record summary for `Cc1ncsc1-c1ccc(CNC(=O)[C@@H]2C[C@@H](O)CN2C(=O)[C@@H](NC(=O)C2(F)CC2)C(C)(C)C)c(OCCOCCOCCOCCN2CCC(c3ccc4c(c3)n(C3CCCC3)c3nc(=O)c5c(Br)cccc5n43)CC2)c1` : reported pKd = 5.84

Just so you know, measured pKd for `Cc1ncsc1-c1ccc(CNC(=O)[C@@H]2C[C@@H](O)CN2C(=O)[C@@H](NC(=O)C2(F)CC2)C(C)(C)C)c(OCCN2CCC(c3ccc4c(c3)n(C3CCCC3)c3nc(=O)c5c(Br)cccc5n43)CC2)c1` came out at 6.74

Field pKd (entry `CN1CCN(c2nc(=O)c3c(Cl)cccc3o2)CC1` ) reads 4.45

###

Target: SMARCA4 (Homo sapiens)
Experiment: SMARCA4 capillary electrophoresis protein assay in RKO cells
Type: cell-based
Set-up: endogenous in cells; host or cells: RKO, HCT116, LU99, HCC-364, HCT-15, HCC4006, SK-N-AS
Details: RKO (18 h); mean ± SD
So I've got a bunch of compounds here, and I need their DC50 values.

# DC50 of `CN1CCN(c2nc(=O)c3c(Br)cccc3o2)CC1` = > 25 µM

DC50 in this record for `CN1CCN(c2nc(=O)c3c(Cl)cccc3o2)CC1` : > 25 µM

Measured DC50 of `Cc1ncsc1-c1ccc(CNC(=O)[C@@H]2C[C@@H](O)CN2C(=O)[C@@H](NC(=O)C2(F)CC2)C(C)(C)C)c(OCCN2CCC(c3ccc4c(c3)n(C3CCCC3)c3nc(=O)c5c(Br)cccc5n43)CC2)c1` : > 25 µM
